Values were extracted from paper PMC5416816.

Molecular target: T1, TIA-1 RRM23S (UniProt P31483-2 94-272)
T1 sequence: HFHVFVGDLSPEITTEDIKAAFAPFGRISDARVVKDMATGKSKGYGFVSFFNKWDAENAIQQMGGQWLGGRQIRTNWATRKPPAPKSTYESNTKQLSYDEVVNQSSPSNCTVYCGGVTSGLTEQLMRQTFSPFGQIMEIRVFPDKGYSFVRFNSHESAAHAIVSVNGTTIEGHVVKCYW
Assay: fluorescence anisotropy
recorded endpoint: Kd (µM)
Give the quantity in µM, number only.

Incoming: What measured Kd goes with ACUCCUUUUU (ssRNA) [CU-rich RNA] ?
Outgoing: 6.6
